tested on: M. tb, strain H37Rv; test: LORA minimum inhibitory concentration assay (hypoxic); type: cell-based; details: Mycobacterium tuberculosis
experimentalReadout: MIC (µM)
Report the value in µM with no unit label.

Worked examples follow.
O=C(OCC1CCn2cc([N+](=O)[O-])nc2O1)N1CCN(c2ccc(F)cc2)CC1 (centres unmarked) [compound 160]    22
O=[N+]([O-])c1cn2c(n1)OC(COc1cccc(-c3ccc(F)nc3F)n1)CC2 (centres unmarked) [compound 119]    10
CC1(COc2ccc(-c3ccc(OC(F)(F)F)cc3)nc2)CCn2cc([N+](=O)[O-])nc2O1 (centres unmarked) [compound 96]    0.88
O=[N+]([O-])c1cn2c(n1)OC(COc1ccc(-c3ccc(F)cn3)cn1)CC2 (centres unmarked) [compound 105]    11

Data request: Name the recorded MIC for CC1(COC2CCN(c3ccc(F)cc3)CC2)CCn2cc([N+](=O)[O-])nc2O1 (centres unmarked) [compound 178] .
Data returned: 19

Data request: # iterate: O=[N+]([O-])c1cn2c(n1)OC(COCc1ccc(OCc3ccccc3)cc1)CC2 (centres unmarked) [compound 22]
Data returned: 3

Data request: # iterate: CC1(COc2ccc(-c3ccc(F)cc3F)cn2)CCn2cc([N+](=O)[O-])nc2O1 (centres unmarked) [compound 63]
Data returned: 2.5

Data provenance is paper PMC7722354.
